The origin of these recorded values is patent US7244744B2.

Target: PN3 (Homo sapiens, UniProt Q9Y5Y9)
Sequence (Q9Y5Y9 whole entry, species assumed): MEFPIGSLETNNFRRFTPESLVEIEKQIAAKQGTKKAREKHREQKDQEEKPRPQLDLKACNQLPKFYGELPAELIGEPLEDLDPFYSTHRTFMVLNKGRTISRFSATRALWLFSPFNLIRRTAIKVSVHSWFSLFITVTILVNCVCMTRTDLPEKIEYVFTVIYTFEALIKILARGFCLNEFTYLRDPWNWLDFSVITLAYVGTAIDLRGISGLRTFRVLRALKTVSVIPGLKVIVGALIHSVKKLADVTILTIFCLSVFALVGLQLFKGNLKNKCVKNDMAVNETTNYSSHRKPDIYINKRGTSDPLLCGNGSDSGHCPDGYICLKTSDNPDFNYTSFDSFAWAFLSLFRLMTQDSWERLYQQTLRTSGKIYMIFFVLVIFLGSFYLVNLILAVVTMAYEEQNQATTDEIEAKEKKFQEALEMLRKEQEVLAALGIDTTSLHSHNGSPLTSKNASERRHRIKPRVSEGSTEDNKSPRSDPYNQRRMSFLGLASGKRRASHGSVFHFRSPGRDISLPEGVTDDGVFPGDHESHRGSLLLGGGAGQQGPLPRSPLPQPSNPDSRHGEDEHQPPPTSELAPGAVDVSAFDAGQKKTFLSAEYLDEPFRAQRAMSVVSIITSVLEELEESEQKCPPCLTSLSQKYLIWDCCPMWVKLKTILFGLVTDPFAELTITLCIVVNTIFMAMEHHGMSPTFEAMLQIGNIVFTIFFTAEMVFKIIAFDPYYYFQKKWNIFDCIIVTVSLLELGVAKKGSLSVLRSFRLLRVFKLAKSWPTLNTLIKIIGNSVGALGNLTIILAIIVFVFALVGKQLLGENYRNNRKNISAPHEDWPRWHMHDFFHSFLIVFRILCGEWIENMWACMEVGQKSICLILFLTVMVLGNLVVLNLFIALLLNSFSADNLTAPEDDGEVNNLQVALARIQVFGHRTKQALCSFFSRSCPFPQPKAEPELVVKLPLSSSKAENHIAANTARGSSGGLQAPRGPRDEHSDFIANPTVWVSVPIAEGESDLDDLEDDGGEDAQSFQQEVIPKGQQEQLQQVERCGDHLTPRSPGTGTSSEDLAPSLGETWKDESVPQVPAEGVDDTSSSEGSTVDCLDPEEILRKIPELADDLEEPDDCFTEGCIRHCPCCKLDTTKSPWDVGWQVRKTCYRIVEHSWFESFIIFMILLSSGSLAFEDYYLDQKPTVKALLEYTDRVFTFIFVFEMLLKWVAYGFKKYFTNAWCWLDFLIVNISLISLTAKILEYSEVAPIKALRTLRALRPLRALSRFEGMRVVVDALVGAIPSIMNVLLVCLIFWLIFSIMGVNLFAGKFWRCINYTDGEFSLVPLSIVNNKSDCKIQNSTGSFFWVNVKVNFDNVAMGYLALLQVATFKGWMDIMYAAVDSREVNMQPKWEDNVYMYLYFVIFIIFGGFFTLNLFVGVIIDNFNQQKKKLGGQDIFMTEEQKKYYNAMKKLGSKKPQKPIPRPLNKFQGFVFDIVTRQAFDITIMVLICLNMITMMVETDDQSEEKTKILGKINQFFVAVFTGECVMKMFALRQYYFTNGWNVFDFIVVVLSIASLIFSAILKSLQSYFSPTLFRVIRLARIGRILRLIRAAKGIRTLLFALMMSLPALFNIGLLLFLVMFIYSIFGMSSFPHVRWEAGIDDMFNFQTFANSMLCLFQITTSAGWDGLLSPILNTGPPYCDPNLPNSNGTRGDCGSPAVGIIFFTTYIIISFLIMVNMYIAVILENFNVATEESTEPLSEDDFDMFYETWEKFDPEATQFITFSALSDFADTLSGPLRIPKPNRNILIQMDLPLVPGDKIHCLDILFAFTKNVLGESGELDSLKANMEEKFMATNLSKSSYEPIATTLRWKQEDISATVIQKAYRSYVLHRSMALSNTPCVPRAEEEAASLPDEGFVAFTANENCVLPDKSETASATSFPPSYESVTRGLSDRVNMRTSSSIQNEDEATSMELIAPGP
Test: 14C Guanidinium Ion Influx Binding Assay (flux assay)
Conditions: activity towards PN3, PN3 stably expressed in a host cell line, deltamethrine 10 μM
Entries and their IC50 values follow.

>>> reported_result("CCCCCCNc1nc2ccccc2n1C1CCN(C(=O)c2ccc(CCCC)cc2)CC1")
"0.1 to 4 µM"
>>> reported_result("O=c1[nH]c2ccccc2n1C1CCN(S(=O)(=O)c2ccc3ccccc3c2)CC1")
"4.1 to 10 µM"
>>> reported_result("CCCCc1ccc(C(=O)N2CCC(n3c(=O)[nH]c4ccccc43)CC2)cc1")
"0.1 to 4 µM"
>>> reported_result("CCCCc1ccc(C(=O)N2CCC(n3c(NCc4ccccc4)nc4ccccc43)CC2)cc1")
"0.1 to 4 µM"

Would you kindly look at the next entry?
QUERY: Record lookup: for PN3 (Homo sapiens, UniProt Q9Y5Y9), what IC50 belongs to CCCCc1ccc(C(=O)N2CC=C(n3c(=O)n(C)c4ccccc43)CC2)cc1 ?
RESULT: 0.1 to 4 µM

* * *

Target: PN3 (Homo sapiens, UniProt Q9Y5Y9)
Assay: 14C Guanidinium Ion Influx Binding Assay (flux assay)
Conditions: activity towards PN3, PN3 stably expressed in a host cell line, deltamethrine 10 μM
quantity-kind: IC50

Worked cases, IC50 given:
>>> reported_result("CCCCc1ccc(C(=O)N2CCC(n3c(NCc4ccccn4)nc4ccccc43)CC2)cc1 [Compound 185]")
"4.1 to 10 µM"
>>> reported_result("CCCCc1ccc(C(=O)N2CCC(n3c(C)nc4ccccc43)CC2)cc1 [Compound 203]")
"4.1 to 10 µM"
>>> reported_result("CCCCc1ccc(C(=O)N2CC=C(n3c(=O)n(Cc4ccccc4)c4ccccc43)CC2)cc1 [Compound 208]")
"0.1 to 4 µM"
>>> reported_result("CCCCc1ccc(C(=O)N2CCC(n3c(=O)n(C)c4ccccc43)CC2)cc1 [Compound 150]")
"0.1 to 4 µM"

QUERY: What does the data say about its IC50? Entry: CCCCc1ccc(C(=O)N2CCC(n3c(=O)[nH]c4cccnc43)CC2)cc1 [Compound 200]
RESULT: 0.1 to 4 µM

QUERY: What does the data say about its IC50? Entry: CCCCc1ccc(C(=O)N2CCC(n3c(=O)n(Cc4ccncc4)c4ccccc43)CC2)cc1 [Compound 198]
RESULT: 0.1 to 4 µM

QUERY: What does the data say about its IC50? Entry: CCCCc1ccc(C(=O)N2CC=C(n3c(=O)[nH]c4ccccc43)CC2)cc1 [Compound 181]
RESULT: 0.1 to 4 µM

QUERY: What does the data say about its IC50? Entry: CCCCc1ccc(C(=O)N2CCC(n3c(=O)[nH]c4cc(F)ccc43)CC2)cc1 [Compound 160]
RESULT: 0.1 to 4 µM
